tested.target: Beta-galactosidase (Bos taurus)
test.summary: Inhibition of bovine liver beta-galactosidase at 1000 uM using p-nitrophenyl-glycoside as substrate by spectrophotometric method
metric.name: inhibition

>>> print(df.to_string())
                                 mol_smiles                    tested_target  reported
0  CCCCCCCC/N=C1/SC[C@H]2[C@H](O)[C@@H](O)[C@H](CO)N12  Beta-galactosidase (Bos taurus)     < 50%
1  CCCC/N=C1/SC[C@@H]2[C@@H](O)[C@H](O)[C@@H](CO)N12  Beta-galactosidase (Bos taurus)     < 50%
2  CCCCCC/N=C1/SC[C@@H]2[C@@H](O)[C@H](O)[C@@H](CO)N12  Beta-galactosidase (Bos taurus)     < 50%
3  CCCCCCCC/N=C1/SC[C@@H]2[C@@H](O)[C@H](O)[C@@H](CO)N12  Beta-galactosidase (Bos taurus)     < 50%
4  CCCCNC(=S)N1[C@H](CO)[C@@H](O)[C@H](O)[C@H]1CO  Beta-galactosidase (Bos taurus)     < 50%

---

Listed here: items and their measured IC50.
test.summary: Inhibition of human lysosomal beta-glucosidase using 4-methylumbelliferyl-beta-D-glucopyranoside as substrate preincubated for 45 mins followed by substrate addition measured after 30 mins by fluorescence spectrophotometric method
metric.name: IC50

                                 mol_smiles  metric_name  reported
0  CCCCCCCCCC/N=C1/SC[C@@H]2[C@@H](O)[C@H](O)[C@@H](CO)N12         IC50      1 µM
1  CCCCCC/N=C1/SC[C@@H]2[C@@H](O)[C@H](O)[C@@H](CO)N12         IC50     16 µM
2  CCCCCCCCCCCC/N=C1/SC[C@@H]2[C@@H](O)[C@H](O)[C@@H](CO)N12         IC50      1 µM
3  CCCCCCCCCCCCNC(=S)N1[C@@H](CO)[C@H](O)[C@@H](O)[C@@H]1CO         IC50     73 µM
4  CCCCCCCCCCNC(=S)N1[C@@H](CO)[C@H](O)[C@@H](O)[C@@H]1CO         IC50     65 µM

---

Listed here: items and their measured IC50.
test.summary: Inhibition of human lysosomal beta-glucosidase using 4-methylumbelliferyl-beta-D-glucopyranoside as substrate preincubated for 45 mins followed by substrate addition measured after 30 mins by fluorescence spectrophotometric method
metric.name: IC50

>>> print(df.to_string())
                                 mol_smiles   reported
0  CCCCCCCCCCCCNC(=S)N1[C@H](CO)[C@@H](O)[C@H](O)[C@H]1CO     160 nM
1  CCCC/N=C1/SC[C@@H]2[C@@H](O)[C@H](O)[C@@H](CO)N12  532000 nM
2  CCCCCCCCNC(=S)N1[C@H](CO)[C@@H](O)[C@H](O)[C@H]1CO   12000 nM
3  CCCCCCCC/N=C1/SC[C@@H]2[C@@H](O)[C@H](O)[C@@H](CO)N12    2400 nM
4  CCCCCCCCCCNC(=S)N1[C@H](CO)[C@@H](O)[C@H](O)[C@H]1CO     740 nM

---

test.summary: Inhibition of Penicillium decumbens alpha-L-rhamnosidase using p-nitrophenyl-glycoside as substrate by spectrophotometric method
pIC50: −log10 of the molar value.
pIC50 below 6 gives not satisfied; pIC50 at or above it gives satisfied.

                                 mol_smiles            cat
0  OC[C@H]1[C@H](O)[C@@H](O)[C@@H]2CS/C(=N/Cc3ccccc3)N12  not satisfied
1  OC[C@H]1[C@H](O)[C@@H](O)[C@@H]2CS/C(=N/CCCCCc3ccccc3)N12  not satisfied
2  CCCCCCCCCCCC/N=C1/SC[C@@H]2[C@@H](O)[C@H](O)[C@@H](CO)N12  not satisfied
3  CCCC/N=C1/SC[C@H]2[C@H](O)[C@@H](O)[C@H](CO)N12  not satisfied
4  OC[C@H]1[C@H](O)[C@@H](O)[C@@H]2CS/C(=N/Cc3ccc(Cl)c(Cl)c3)N12      satisfied

---

test.summary: Inhibition of Penicillium decumbens alpha-L-rhamnosidase using p-nitrophenyl-glycoside as substrate by spectrophotometric method
pIC50: −log10 of the molar value.
metric.name: pIC50

                                 mol_smiles  metric_name  reported
0  OC[C@H]1[C@H](O)[C@@H](O)[C@@H]2CS/C(=N/Cc3cccc(Cl)c3)N12        pIC50      6.15
1  OC[C@H]1[C@H](O)[C@@H](O)[C@@H]2CS/C(=N/Cc3ccc(Cl)cc3Cl)N12        pIC50      6.10
2  OC[C@H]1[C@H](O)[C@@H](O)[C@@H]2CS/C(=N/CCCCCCCc3ccccc3)N12        pIC50      6.00
3  Cc1ccc(C/N=C2/SC[C@H]3[C@H](O)[C@@H](O)[C@H](CO)N23)cc1        pIC50      5.92
